minimal effective dose reference
test system: rats; assay: Conditioned avoidance response (CAR) suppression in rats; type: in vivo; conditions: Rattus norvegicus; sc (subcutaneous); read-out: Rat CAR, minimal effective dose (MED)

| MOLECULE | MEASUREMENT_UNITS | minimal effective dose |
| --- | --- | --- |
| CC1=C(C2CN(C)CCc3cc(Cl)c(O)cc32)CCC1 (racemic) [G] | mg/kg | 0.01 |
| Cc1cc2c(cc1O)C(C1CCCCC1)CN(C)CC2 (stereo not shown) [E, reference compound] | mg/kg | 3 |
| Cc1cc2c(cc1O)[C@@H](C1=CCCCC1)CN(C)CC2 [C, reference compound] | mg/kg | 0.1 |
| CN1CCc2cc(Cl)c(O)cc2C(C2CCCC2)C1 (stereo not shown) [D, reference compound] | mg/kg | 3 |

* * *

pKi reference
biological target: dopamine D-1 receptor (Rattus norvegicus); construct: Striatal tissue was excised, pooled, and homogenized; assay: Competitive inhibition assay, 3H-SCH 23390 binding to rat striatal tissue (dopamine D-1); conditions: rat striatal homogenate, 0.3 nM 3H-SCH 23390, pH 7.4, 37° C., 15 minutes, read-out: Ki against 3H-SCH 23390
Sequence (P18901 whole entry): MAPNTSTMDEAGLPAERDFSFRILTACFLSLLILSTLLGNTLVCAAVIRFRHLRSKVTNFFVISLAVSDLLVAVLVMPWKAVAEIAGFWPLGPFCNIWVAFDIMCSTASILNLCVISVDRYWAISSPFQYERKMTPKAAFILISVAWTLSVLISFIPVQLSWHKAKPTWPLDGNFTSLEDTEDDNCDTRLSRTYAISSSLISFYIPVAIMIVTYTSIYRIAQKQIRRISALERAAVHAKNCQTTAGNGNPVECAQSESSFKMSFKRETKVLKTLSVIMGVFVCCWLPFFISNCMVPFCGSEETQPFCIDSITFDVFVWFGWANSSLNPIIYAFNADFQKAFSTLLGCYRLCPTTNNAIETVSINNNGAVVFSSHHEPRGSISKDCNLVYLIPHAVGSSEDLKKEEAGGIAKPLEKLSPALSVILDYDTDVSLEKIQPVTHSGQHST
pKi: −log10 of the molar value.
EXPERIMENTAL_ENDPOINT: pKi

| COMPOUND | ASSAYED_TARGET | REPORTED |
| --- | --- | --- |
| CN1CCc2cc(Cl)c(O)cc2[C@H](C2=CCCCC2)C1 | dopamine D-1 receptor (Rattus norvegicus) | 7.64 |
| Cc1cc2c(cc1O)C(C1CCCCC1)CN(C)CC2 (centres unmarked) [E, reference compound] | dopamine D-1 receptor (Rattus norvegicus) | 7.32 |
| CC(C)=C(C)C1CN(C)CCc2cc(Cl)c(O)cc21 (centres unmarked) | dopamine D-1 receptor (Rattus norvegicus) | 8.55 |
| Cc1cc2c(cc1O)C(C1CCCC1)CN(C)CC2 (centres unmarked) [F, reference compound] | dopamine D-1 receptor (Rattus norvegicus) | 7.36 |
| CC1=C(C2CN(C)CCc3cc(Cl)c(O)cc32)CCCC1 (racemic) | dopamine D-1 receptor (Rattus norvegicus) | 9.08 |
| CC1=C([C@@H]2CN(C)CCc3cc(Cl)c(O)cc32)CCC1 | dopamine D-1 receptor (Rattus norvegicus) | 7.82 |
| CN1CCc2cc(Cl)c(O)cc2C(C2=CCCCC2)C1 (racemic) | dopamine D-1 receptor (Rattus norvegicus) | 8.66 |
| Cc1cc2c(cc1O)C(C1=CCCCC1)CN(C)CC2 (racemic) [A, reference compound] | dopamine D-1 receptor (Rattus norvegicus) | 8.06 |
| CN1CCc2cc(Cl)c(O)cc2[C@@H](C2=CCCCC2)C1 | dopamine D-1 receptor (Rattus norvegicus) | 9.06 |
| Cc1cc2c(cc1O)[C@H](C1=CCCCC1)CN(C)CC2 [B, reference compound] | dopamine D-1 receptor (Rattus norvegicus) | 7.00 |
| Cc1cc2c(cc1O)[C@@H](C1=CCCCC1)CN(C)CC2 [C, reference compound] | dopamine D-1 receptor (Rattus norvegicus) | 8.40 |
| CN1CCc2cc(Cl)c(O)cc2C(C2=CCCC2)C1 (racemic) | dopamine D-1 receptor (Rattus norvegicus) | 8.64 |
| CC1=C(C2CN(C)CCc3cc(Cl)c(O)cc32)CCC1 (racemic) | dopamine D-1 receptor (Rattus norvegicus) | 9.57 |
| CC1=C([C@H]2CN(C)CCc3cc(Cl)c(O)cc32)CCC1 | dopamine D-1 receptor (Rattus norvegicus) | 9.37 |

Cited source for all entries: patent US5241065A
